So I've got a bunch of binders here, and I need their normalized additional binding in 2nd association values.
Target: T1, mouse folate receptor alpha (mFRα), recombinant protein (mouse, UniProt P35846 25-232)
T1 construct: Bought recombinant proteins (e.g. biotinylated, Acro Biosystems FO1-M82E9); also called mFOLR1; Ms FOLR1
T1 sequence (P35846 25-232 limits assumed): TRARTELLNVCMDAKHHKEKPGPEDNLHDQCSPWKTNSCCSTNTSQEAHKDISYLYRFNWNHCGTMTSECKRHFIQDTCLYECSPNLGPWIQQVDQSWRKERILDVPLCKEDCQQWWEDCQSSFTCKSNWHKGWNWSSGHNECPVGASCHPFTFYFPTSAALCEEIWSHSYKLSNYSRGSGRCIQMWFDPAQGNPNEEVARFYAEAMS
Assay: BLI tandem binning on mouse FRα; competitor (1st association) 2HFO19
Record the result as number plus unit.

Before answering, review these 2 worked examples.
# binder, observed.value
records = [
    ("VHH 3MFR60 (family 10) (VHH) VHH: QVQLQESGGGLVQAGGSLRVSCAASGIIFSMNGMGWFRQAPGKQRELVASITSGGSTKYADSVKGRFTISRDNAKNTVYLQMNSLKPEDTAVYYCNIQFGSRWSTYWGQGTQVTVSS", "6%"),
    ("VHH 2HFO42 (family 3) (VHH, also called 2HF042; Nb42) VHH: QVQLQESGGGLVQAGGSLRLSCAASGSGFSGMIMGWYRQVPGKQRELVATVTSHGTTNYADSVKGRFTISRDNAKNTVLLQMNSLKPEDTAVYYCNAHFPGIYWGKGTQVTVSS", "1%"),
]

Go through the items and report each one's normalized additional binding in 2nd association.
1. VHH 2MFR32 (VHH, also called 2MF832) VHH: QVQLQESGGGLVQAGGSLRVSCAASGFPFSTVYMSWVRQAPGKGLEWVSGINSNGGVIDYADSVKGRFTISRDNANNTLYLQLNSLKPEDTALYFCAKGRAFVATMPSSLRGQGTQVTVSS
2. VHH 2HFO19 (family 1) (VHH, also called Nb19) VHH: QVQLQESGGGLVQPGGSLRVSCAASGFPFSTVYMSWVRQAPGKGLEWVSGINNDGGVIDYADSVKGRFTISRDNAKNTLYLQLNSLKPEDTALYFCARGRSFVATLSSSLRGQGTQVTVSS

stdout:
["100%", "0%"]
